Biological target: Mitogen-activated protein kinase 14 (Homo sapiens, UniProt Q16539)
Sequence (Q16539 whole entry): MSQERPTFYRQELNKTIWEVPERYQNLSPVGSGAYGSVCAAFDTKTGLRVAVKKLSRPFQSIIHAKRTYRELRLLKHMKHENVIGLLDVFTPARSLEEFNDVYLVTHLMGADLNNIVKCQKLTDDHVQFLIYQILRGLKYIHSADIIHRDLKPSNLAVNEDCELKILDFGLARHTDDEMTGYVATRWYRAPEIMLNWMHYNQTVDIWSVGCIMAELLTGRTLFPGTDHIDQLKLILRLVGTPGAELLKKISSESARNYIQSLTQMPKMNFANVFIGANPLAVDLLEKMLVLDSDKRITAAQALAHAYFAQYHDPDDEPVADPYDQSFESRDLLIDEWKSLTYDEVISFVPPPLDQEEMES
Assay: Inhibition of p38alpha MAPK (unknown origin) assessed as target residence time using ATF2 as substrate preincubated for 1 hr followed by jump dilution in presence of substrate and measured every 3 mins for 4 hrs by TR-FRET assay
measured_attribute: TIME (h)

Reference set, count: 3
>>> endpoint_value("O=C1c2ccc(Nc3ccc(F)cc3F)cc2CCc2ccc(OC[C@H](O)CO)cc21")
0.0244
>>> endpoint_value("O=C(NCCN1CCOCC1)c1ccc2c(c1)C(=O)c1ccc(Nc3ccc(F)c(/C=N/NC(=O)c4ccccc4)c3)cc1CC2")
0.231
>>> endpoint_value("O=C(NCCN1CCOCC1)c1ccc2c(c1)C(=O)c1ccc(Nc3ccc(F)c(/C=N/NC(=O)c4cccs4)c3)cc1CC2")
0.372

[1] O=C(NCCN1CCOCC1)c1ccc2c(c1)C(=O)c1ccc(Nc3ccc(F)c(NC(=O)c4cccs4)c3)cc1CC2
[2] O=C(NCCN1CCOCC1)c1ccc2c(c1)C(=O)c1ccc(Nc3ccc(F)c(NC(=O)c4ccc[se]4)c3)cc1CC2
[3] O=C(NCCN1CCOCC1)c1ccc2c(c1)C(=O)c1ccc(Nc3ccc(F)c(NC(=O)c4ccccc4)c3)cc1CC2
Query :: Could you please order the items by TIME, going from the lowest number to the highest? In your reply, arrange the labels in the requested order.
Result :: 3, 1, 2

---

Molecular target: Mitogen-activated protein kinase 14 (Homo sapiens, UniProt Q16539)
Assay: Inhibition of NanoBRET kinase tracer K4 binding to full-length human C-terminal NanoLuc-tagged p38alpha MAPK expressed in HEK293T cells incubated for 2 hrs by NanoBRET NanoGlo substrate based NanoBRET assay
Format: cell-based, HEK-293T
measured_attribute: IC50 (nM)

[a] O=C(NCCN1CCOCC1)c1ccc2c(c1)C(=O)c1ccc(Nc3ccc(F)c(NC(=O)c4ccc[se]4)c3)cc1CC2
[b] O=C(NCCN1CCOCC1)c1ccc2c(c1)C(=O)c1ccc(Nc3ccc(F)c(/C=N/NC(=O)c4ccc[se]4)c3)cc1CC2
[c] O=C(NCCN1CCOCC1)c1ccc2c(c1)C(=O)c1ccc(Nc3ccc(F)c(/C=N/NC(=O)c4cccs4)c3)cc1CC2
Query :: Rank by IC50 (largest to smallest). In your reply, arrange the labels in the requested order.
Result :: b, c, a

---

Biological target: Mitogen-activated protein kinase 14 (Homo sapiens)
Assay: Inhibition of p38alpha MAPK in human whole blood assessed as reduction in LPS-induced TNFalpha production preincubated for 2.5 hrs followed by LPS stimulation by ELISA
Type: tissue-based
measured_attribute: IC50 (nM)

Reference set, count: 3
>>> endpoint_value("O=C(NCCN1CCOCC1)c1ccc2c(c1)C(=O)c1ccc(Nc3ccc(F)c(/C=N/NC(=O)c4ccccc4)c3)cc1CC2")
47
>>> endpoint_value("O=C(NCCN1CCOCC1)c1ccc2c(c1)C(=O)c1ccc(Nc3ccc(F)c(/C=N/NC(=O)c4ccc[se]4)c3)cc1CC2")
490
>>> endpoint_value("O=C(NCCN1CCOCC1)c1ccc2c(c1)C(=O)c1ccc(Nc3ccc(F)c(NC(=O)c4ccc[se]4)c3)cc1CC2")
101

[a] O=C(NCCN1CCOCC1)c1ccc2c(c1)C(=O)c1ccc(Nc3ccc(F)c(NC(=O)c4cccs4)c3)cc1CC2
[b] O=C(NCCN1CCOCC1)c1ccc2c(c1)C(=O)c1ccc(Nc3ccc(F)c(/C=N/NC(=O)c4cccs4)c3)cc1CC2
Query :: Param pair: a , b . Output: the one whose IC50 is numerically greater. Identify your selection by its label.
Result :: b
(b: 276 nM, a: 43 nM)
